Field: IC50. Provide a value for each of the compounds that follow.
target: activated ERK2 (Homo sapiens (Human), UniProt P28482); assay: Activated ERK2 (20 pM) Kinase Assay (AlphaScreen, ERKtide phosphorylation); format: biochemical; settings: 0.02 nM ERK2, 400 nM ERKtide peptide, 35 μM ATP, 30 min preincubation
Sequence (P28482 whole entry): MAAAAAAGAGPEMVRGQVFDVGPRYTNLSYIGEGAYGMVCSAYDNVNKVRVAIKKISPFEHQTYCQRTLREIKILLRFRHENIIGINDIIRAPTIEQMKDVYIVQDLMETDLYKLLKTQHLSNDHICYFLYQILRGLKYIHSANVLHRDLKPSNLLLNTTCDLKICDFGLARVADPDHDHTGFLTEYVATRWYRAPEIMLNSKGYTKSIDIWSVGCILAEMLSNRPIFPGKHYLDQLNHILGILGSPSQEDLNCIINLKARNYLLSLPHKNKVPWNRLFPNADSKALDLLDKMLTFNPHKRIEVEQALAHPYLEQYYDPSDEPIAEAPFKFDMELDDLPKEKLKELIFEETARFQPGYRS
Field: numeric (nM). Do not append units.

IC50 for `CCNC[C@@H](NC(=O)c1ccc(-c2nc([C@H]3CC[C@H](O)CC3)cnc2N)cc1F)c1cccc(Br)c1` ?
0.0617

Param item = `Cn1nccc1-c1cnc(N)c(-c2ccc(C(=O)N[C@H](CO)c3cccc(CF)c3)c(F)c2)c1` ; retrieve measured IC50.
0.0599

For the compound shown here, Nc1ncc(C2CCCC(O)C2)nc1-c1ccc(C(=O)N[C@H](CO)c2cc(F)cc(Br)c2)c(F)c1 (single isomer, unassigned) [Example 384] , give the reported IC50.
0.0614
